Tested on: Inhibin beta A chain (activin A)
protocol_notes: INHBA (activin A) binders on microarrays, primary screen, biochemical, small-molecule microarray, 635 nm fluorescence scan (AID 1107);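 also: mouse activin A protein probed at 4.33 µg/mL on printed slides; score merges bound-protein fluorescence near 667 nm with spot signal-to-noise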
condition_label: small-molecule microarray binding, higher = more signal
Think of 0.7 as a floor: if composite z-score stands on it or above, it is Criterion met; beneath it, Criterion not met.

INSERT INTO results (compound, system, label) VALUES
  ('O=C1O[C@@H](c2ccccc2)[C@@H](c2ccccc2)N2[C@@H](c3ccc(OCCO)cc3)[C@]3(C(=O)Nc4ccccc43)[C@@H](C(=O)N3CCN(c4ncccn4)CC3)[C@H]12', 'Inhibin beta A chain (activin A)', 'Criterion not met');

Could you tell me if the measured composite z-score of CCOC(=O)[C@H](Cc1ccccc1)NC(=O)CCC1CC(OC(=O)NCc2ccc3c(c2)OCO3)CC2(CCCC(COC(=O)NCc3cccc(C(F)(F)F)c3)O2)O1 (some centres not stated) reaches 0.7 or more?
Criterion not met

Could you tell me if the measured composite z-score of Cc1cc(C)c(-c2cc([C@H](C)ON=C3[C@H]4CCn5c(=O)n(-c6ccccc6)c(=O)n5[C@H]4[C@H](O)[C@@H]4O[C@H]34)on2)c(C)c1 reaches 0.7 or more?
Criterion not met

Could you tell me if the measured composite z-score of CC(C)[C@@H](OCc1ccccc1)[C@H](C)C=NOC[C@@H](C)[C@H](OCc1ccccc1)C(C)C reaches 0.7 or more?
Criterion not met

* * *

protocol_notes: COS7 lysate on small-molecule microarray, probe aHis, 635 nm (AID 1123);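 also: z-score combines 667nm fluorescence intensity with signal-to-noise per printed compound spot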
condition_label: COS7 cell lysate, fluorescence, higher = more signal
quantity_name: composite z-score
Enter a number only.

INSERT INTO measurements (structure_smiles_string, measurement) VALUES
  ('O=C1[C@H]2[C@H]3[C@H](O)[C@H](O)CC(=NOC[C@@H](O)COCc4ccco4)[C@@H]3CC[C@H]2C(=O)N1c1ccc(F)cc1F', -1.08),
  ('CCc1cccc(NC(=O)O[C@H]2[C@H](OC(=O)Nc3ccc4c(c3)OCO4)[C@@H](OC(=O)Nc3ccc4c(c3)OCO4)[C@@H](OC)O[C@@H]2CO)c1', 2.42),
  ('CC(C)CN1CCc2nc(-c3ccccc3)c3c(c2CC1)CO[C@@H](C)C3', -0.258),
  ('COc1ccc(O[C@@H]2[C@H](O)CO[C@H]2C=CC#Cc2ccccc2)cc1', 0.297);

Given the entry COCCCNC(=O)[C@@]1(CCS(=O)(=O)c2ccccc2)N=C(c2ccc(OCCCO)cc2)O[C@H]1c1ccccc1 , report its measured composite z-score.
3

* * *

system: Luciferin 4-monooxygenase (Photinus pyralis) (UniProt P08659)
Sequence (P08659 whole entry, looked up): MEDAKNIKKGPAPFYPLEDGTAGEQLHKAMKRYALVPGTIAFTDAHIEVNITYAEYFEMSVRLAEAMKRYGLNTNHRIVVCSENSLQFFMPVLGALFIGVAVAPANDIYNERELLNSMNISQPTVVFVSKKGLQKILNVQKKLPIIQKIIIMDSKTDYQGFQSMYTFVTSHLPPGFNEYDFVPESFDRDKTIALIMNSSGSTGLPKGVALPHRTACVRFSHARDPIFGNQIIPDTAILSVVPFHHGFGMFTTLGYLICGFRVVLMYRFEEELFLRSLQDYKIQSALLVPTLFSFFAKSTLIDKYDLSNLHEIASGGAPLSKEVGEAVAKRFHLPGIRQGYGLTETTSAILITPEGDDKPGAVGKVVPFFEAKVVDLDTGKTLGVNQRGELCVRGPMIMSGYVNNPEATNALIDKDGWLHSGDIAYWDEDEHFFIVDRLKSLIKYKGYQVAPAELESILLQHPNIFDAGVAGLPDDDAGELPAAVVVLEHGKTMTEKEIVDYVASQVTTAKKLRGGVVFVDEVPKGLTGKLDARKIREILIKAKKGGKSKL
protocol_notes: firefly luciferase enzyme inhibitors, primary screen, biochemical, luminescence, purified enzyme, 2006 set (AID 1141);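 also: cell-free assay with purified firefly luciferase at 100 ng per well in PBS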
condition_label: SteadyGlo luminescence, 30 min, higher = more signal, called active from +8 up or from −8 down
Activity calls are given as the source filed them.
quantity_name: z-score

Example cases with answers are listed next.
INSERT INTO results (compound, measurement) VALUES
  ('COc1ccc([Si](C)(C)[C@@H]2[C@@H](CCO)O[C@]3(C(=O)N(Cc4ccc(NC(C)=O)cc4)c4ccccc43)[C@H]2C)cc1', '0.377 (inactive)'),
  ('CC(CCC(=O)OC[C@H]1O[C@H](C#Cc2ccccc2)C=C[C@@H]1Oc1ccc(C)cc1)=NO[C@@H](C)c1cn([C@H](CO)Cc2ccccc2)nn1', '0.991 (inactive)'),
  ('CC(C)NC(=O)[C@@]1(C)c2ccccc2C(=O)N(Cc2cc(F)cc(C(F)(F)F)c2)[C@H]1c1ccc(CO)cc1', '0.433 (inactive)'),
  ('CCOC(=O)[C@H](CC(C)C)NC(=O)CCC1CC(OC(=O)NCCc2ccc(F)cc2)CC2(CCCC(COC(=O)NCc3ccccc3)O2)O1 (some centres not stated)', '0.629 (inactive)'),
  ('CO[C@@H]1COC(=O)[C@@H]2CCCN2C(=O)[C@@H](C)COC(=O)[C@H](COCc2ccccc2)NC(=O)CC=C[C@H]1C', '0.951 (inactive)');

Given the entry COc1cccc([C@H]2Oc3ccc(OC)cc3C(=NOC(C)CN3CCCc4nc(C)c(C)cc43)[C@@H]2O)c1 (some centres not stated) , report its measured z-score.
0.149 (inactive)

Given the entry C=C(/C(=C/C[C@@H](OC(=O)c1ccncc1)c1ccc(OCCO)cc1)c1cnc2ccccc2c1)C(C)C , report its measured z-score.
-2.06 (inactive)

* * *

system: Dickkopf-related protein 1 (Homo sapiens) (UniProt O94907)
Sequence (O94907 whole entry, looked up): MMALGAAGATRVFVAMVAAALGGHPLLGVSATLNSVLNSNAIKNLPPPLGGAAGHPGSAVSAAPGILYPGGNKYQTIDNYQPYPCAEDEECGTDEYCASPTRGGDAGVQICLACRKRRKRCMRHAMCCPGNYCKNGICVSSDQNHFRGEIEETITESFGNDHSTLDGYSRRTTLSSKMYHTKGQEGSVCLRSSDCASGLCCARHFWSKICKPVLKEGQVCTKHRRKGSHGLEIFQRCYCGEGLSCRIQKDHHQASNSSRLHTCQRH
protocol_notes: DKK1 binders on small-molecule microarrays, primary screen, biochemical, small-molecule microarray, 635 nm fluorescence scan (AID 1106);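 also: score merges emission near 667 nm with signal to noise over three replicate slides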
condition_label: DKK1 binding, higher = more signal
quantity_name: composite z-score
Enter a number only.

INSERT INTO results (molecule, quantity_name, measurement) VALUES
  ('CC(CCN1CCc2nc(-c3ccccc3)c(-c3ccccc3)cc2C1)=NOC[C@@H](C)[C@H](OCc1ccccc1)C(C)C', 'composite z-score', -1.21),
  ('C#CCCCON=C1C[C@@H](O)[C@@H](O)[C@@H]2[C@@H]3C(=O)N([C@@H](C)c4ccccc4)C(=O)[C@@H]3CC[C@H]12', 'composite z-score', 0.618),
  ('O=C1C[C@@H](O)[C@@H](O)[C@@H]2[C@@H]3C(=O)N(c4cccc(Oc5ccccc5)c4)C(=O)[C@@H]3CC[C@@H]12', 'composite z-score', 0.987);

Given the entry CCN1C(=O)[C@H]2[C@H]3[C@H](O)[C@H](O)CC(=NOCC=C(C)CCC=C(C)C)[C@H]3CC[C@H]2C1=O , report its measured composite z-score.
1.74

Given the entry O=C1O[C@@H](c2ccccc2)[C@@H](c2ccccc2)N2[C@@H](c3ccc(OCCO)cc3)[C@]3(C(=O)Nc4ccc(C#CCCO)cc43)[C@@H](C(=O)N3CCCCCCC3)[C@H]12 , report its measured composite z-score.
1.78

Given the entry COCCCNC(=O)[C@]1(CCC(=O)OC(C)(C)C)N=C(c2ccc(OCCCO)cc2)O[C@@H]1c1ccccc1N=[N+]=[N-] , report its measured composite z-score.
0.0998

Given the entry COC(=O)C1(C)C=C2C(=C(c3ccccc3)C(=O)C2C)CN1 (centres undefined) , report its measured composite z-score.
-1.16

Given the entry CO[C@H]1O[C@H](CO)[C@@H](OC(=O)Nc2ccc3c(c2)OCO3)[C@H](OC(=O)Nc2ccccc2-c2ccccc2)[C@@H]1OC(=O)Nc1ccccc1-c1ccccc1 , report its measured composite z-score.
0.271

* * *

As shown below, each of these compounds has a reported z-score value.
protocol_notes: FRG1 promoter luciferase signal modulators, primary screen, FRG1 inhibition for FSHD, cell-based, C2C12 myotubes, firefly/Renilla luciferase, luminescence (AID 1084)
condition_label: higher = more signal, called active from +8 up or from −8 down
The source made the active and inactive calls.

Example cases with answers are listed next.
INSERT INTO measurements (structure_smiles_string, measurement) VALUES
  ('[N-]=[N+]=NCc1ccccc1C[C@]1(C(=O)NCc2ccccc2)N=C(c2ccc(OCCCO)cc2)O[C@H]1c1ccccc1N=[N+]=[N-]', '-1.34 (inactive)'),
  ('O=C1O[C@@H](c2ccccc2)[C@@H](c2ccccc2)N2[C@@H](c3ccc(OCCO)cc3)[C@]3(C(=O)Nc4ccc(C#CCCO)cc43)[C@@H](C(=O)N3CCCCCCC3)[C@H]12', '-1.99 (inactive)');

We next turn to a different compound, shown below.
Given the entry CC(C)=C1C(=O)C(c2ccccc2)=C2CN3C(=O)N(CCc4ccccc4)C(=O)[C@]3(Cc3ccc(F)cc3)[C@H]21 , report its measured z-score.
-0.0896 (inactive)

* * *

Test system: XIP peptide (Xip251-270)
protocol_notes: small-molecule binders of XIP peptide, primary screen, biochemical, small-molecule microarray, fluorescence 635/667 nm, 0.5 µg/mL protein (AID 1183)
condition_label: small-molecule microarray binding, fluorescence 635 nm; higher = more signal
Think of 0.4 as a floor: if composite z-score stands on it or above, it is T; beneath it, F.

INSERT INTO results (molecule, label) VALUES
  ('COC(=O)C1(C)C=C2C(=C(c3ccccc3)C(=O)C2C)CN1 (configuration not stated)', 'T'),
  ('CCOC(=O)NN=C1C[C@@H](O)[C@@H](O)[C@@H]2[C@@H]3C(=O)N(C4CCCCC4)C(=O)[C@@H]3CC[C@H]12', 'T');

Could you tell me if the measured composite z-score of CCCC=C(CCC)[C@@H](NC(=O)c1ccc(-c2ccccc2)cc1)c1ccc(C(=O)OC)cc1 reaches 0.4 or more?
F

Could you tell me if the measured composite z-score of CCCNC(=O)OC[C@H]1O[C@H](CCON=C2[C@H]3CCn4c(=O)n(-c5ccccc5)c(=O)n4[C@H]3[C@H](O)[C@@H]3O[C@H]23)C=C[C@@H]1Oc1ccc(OC)cc1 reaches 0.4 or more?
T

Could you tell me if the measured composite z-score of CCOC(=O)CCN1C(=O)[C@H]2[C@H]3[C@H](O)[C@H](O)CC(=NOC[C@@H](O)COCc4ccco4)[C@H]3CC[C@H]2C1=O reaches 0.4 or more?
F

Could you tell me if the measured composite z-score of C[C@@H]1CCC2C(=O)N(Cc3ccccc3)C[C@@H](O)CN2[C@H]1c1ccc(Br)cc1 (some centres not stated) reaches 0.4 or more?
T

Could you tell me if the measured composite z-score of [N-]=[N+]=NCc1ccccc1[C@@H]1OC(c2ccc(OCCCO)cc2)=N[C@]1(Cc1ccccc1)C(=O)N1CCOCC1 reaches 0.4 or more?
T
